Where do these numbers come from? They come from patent US7709509B2.

Target: human PPARalpha (Homo sapiens, UniProt Q07869)
Construct: human PPARalpha receptor (amino acids S167-Y468); expressed in transfected cells; host or cells: HEK cells, stably transfected (pcDNA3, CMV promoter)
Sequence (Q07869 167-468): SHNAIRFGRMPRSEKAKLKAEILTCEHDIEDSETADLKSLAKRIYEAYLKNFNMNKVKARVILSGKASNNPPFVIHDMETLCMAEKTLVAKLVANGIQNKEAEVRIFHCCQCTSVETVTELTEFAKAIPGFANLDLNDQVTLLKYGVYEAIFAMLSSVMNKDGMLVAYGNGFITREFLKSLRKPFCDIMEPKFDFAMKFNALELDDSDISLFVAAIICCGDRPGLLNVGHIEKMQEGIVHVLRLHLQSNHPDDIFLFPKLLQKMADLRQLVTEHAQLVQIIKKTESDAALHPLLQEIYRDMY
Experiment: Cellular PPARalpha assay (HEK PPARalpha reporter cell line, luciferase)
Format: cell-based
Details: GR-GAL4-humanPPARalpha-LBD
Recorded Metric: EC50 (nM)
Use nM as the unit, but write only the number.

Compound Structure String: Cc1oc(-c2ccc(-c3ccccc3)cc2)nc1COc1ccc(-c2noc(=O)[nH]2)c(Cl)c1
EC50 / nM: 250
--
Compound Structure String: CCCCc1nc(-c2ccc(C(F)(F)F)cc2)sc1COc1ccc(Cc2noc(=O)[nH]2)c(Cl)c1
EC50 / nM: 770

Fill in reported EC50 for this entry: Cc1nc(-c2ccc(C(F)(F)F)cc2)sc1CSc1ccc(-c2noc(=O)[nH]2)cc1
1330

Fill in reported EC50 for this entry: CCCCc1nc(-c2ccc(C(F)(F)F)cc2)sc1COCc1ccc(-c2noc(=O)[nH]2)c(F)c1
120

Fill in reported EC50 for this entry: COCCOCc1nc(-c2ccc(C(F)(F)F)cc2)sc1COc1ccc(-c2noc(=O)[nH]2)c(Cl)c1
230

Fill in reported EC50 for this entry: CCCCc1nc(-c2ccc(C(F)(F)F)cc2)sc1COc1cc(F)c(-c2noc(=O)[nH]2)c(F)c1
360
